We begin with a simple list: items and their reported IC50.
- Tested on: Influenza A virus (hanfang359/95)
- Measurement protocol: Determination of anti-influenza virus activity (CPE in MDCK cells)
- Assay type: cell-based
- Condition label: Influenza A virus, MDCK, 36 h

Here are 4 compounds together with their reported answers.
> print(dat)
                                   compound  readout        result
1      COC(=O)c1c(/C=C/c2ccccc2)cc(OC)cc1OC     IC50  > 2.05 µg/mL
2  COc1cc(/C=C/c2ccccc2)c(C(=O)OCC(O)CO)c(O)c1CC=C(C)C (centres unmarked)     IC50     0.1 µg/mL
3  COc1cc(/C=C/C=C/c2ccccc2)cc(O)c1CC=C(C)C [Compound 10m]     IC50    2.35 µg/mL
4  COc1cc(/C=C/c2cc(O)c(O)c(O)c2)cc(OC)c1 [Compound 21j]     IC50    0.98 µg/mL

Shifting focus to the compound that follows.
Lab note: compound COC(=O)c1c(/C=C/c2cc(OC)ccn2)cc(OC)c(CC=C(C)C)c1O tested on Influenza A virus (hanfang359/95); recorded IC50 was 0.87 µg/mL
